Tested on: LIMK2
Run conditions: concentration: 1 μM, replicates: in singlicate; n = 1;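 also: KINOMEscan kinase panel screen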
Recorded endpoint: %Inh (%)
Your answer is read as %, so omit the unit and give the number.

O=C(Nc1ccccc1F)NC1CCN(c2ccnc(Nc3ccc(F)cc3)n2)C1 (stereo not drawn)	0
O=C(NCCCN1CCCC1=O)c1cnc(NCc2cc(Cl)ccc2Cl)nc1NC1CCNCC1	0

## Task # %Inh lookup, item COC(=O)c1cccc(NC(=O)NCCNc2ccnc(Nc3ccc(F)cc3)n2)c1
## Result 19

## Task What does the record list as %Inh for COc1ccc(Nc2nccc(N3CCC(NC(=O)c4cccc(NC(C)=O)c4)C3)n2)cc1 (stereo not drawn) ?
## Result 0

## Task For the compound COC(=O)c1c(-c2ccccc2)c2cc(Cl)ccc2c(=O)n1Cc1ccc(S(C)(=O)=O)cc1 , what %Inh is on record?
## Result 0

## Task I have this compound here, Cn1ccc2ncnc(Oc3ccc(NC(=O)Nc4cccnc4)c(Cl)c3)c21 , and I need its recorded %Inh.
## Result 0

## Task Entry under review: CCn1c(-c2ccncc2)nc2cnccc21 . Reported %Inh?
## Result 0

## Task Query (compound): Cc1ccc(O)cc1Nc1cc(C(F)(F)F)nc2ccc(-c3ccncc3)cc12 ; field requested: %Inh
## Result 15

## Task What does the data say about its %Inh? Entry: COc1ccc(NC(=O)Nc2ccc(C)c(-c3ccc(C(=O)Nc4ccncc4)cc3)c2)cc1
## Result 22

###

Test system: TAOK2
Run conditions: concentration: 1 μM, replicates: in singlicate; n = 1
The entries below come with measured %Inh values attached.
Your answer should be a plain number; it is taken to be in %.

A selection of reference data follows.
Nc1nc(-c2ccccn2)c(-c2ccnc3ccccc23)s1 [GW548057]	0
O=C(CCO)NCCn1ccc2ncnc(Nc3ccc(Oc4cccc(C(F)(F)F)c4)c(Cl)c3)c21	10
COc1cc2ncnc(Nc3ccc(OCc4ccccc4Br)c(Cl)c3)c2cc1OC.Cl [GI261590]	0
Fc1cccc(COc2ccc(Nc3ncnc4sc(-c5ccc[nH]5)cc34)cc2Cl)c1 [GW707818]	8
Fc1cccc(COc2ccc(Nc3ncnc4cc[nH]c34)cc2Cl)c1	0
Cl.Cl.c1ccc(-c2cc3ccncc3cc2OC2CCNCC2)cc1 [GSK1122999]	0
Cl.Fc1ccccc1COc1ccc(Nc2ncnc3ccc(-c4nnc(C(F)(F)F)o4)cc23)cc1Cl [GW424170]	0
Nc1nc(-c2cccnc2)c(-c2ccnc3ccccc23)s1 [GW684083]	0

Next compound, please.
## Task Can you look up the measured %Inh of NC(=O)c1sc(-n2cnc3ccccc32)cc1OCc1ccccc1F [GSK1024306] for me?
## Result 0

###

System: PLK3
Run conditions: concentration: 1 μM, replicates: in singlicate; n = 1
// reported %Inh for each item listed
Write the number in % without appending the unit.

Some entries whose results are on file:
Nc1nc(-c2ccc3c(N)n[nH]c3c2)cc(N2CCC[C@@H](C(=O)Nc3ccccc3)C2)n1.O=C(O)C(F)(F)F.O=C(O)C(F)(F)F	3
Clc1cc(Nc2ncnc3cc[nH]c23)ccc1OCc1ccccn1	25
CC(=O)Nc1n[nH]c2ncc(-c3ccccc3)cc12	25
O=C(Nc1n[nH]c2nc(-c3ccco3)c(Br)cc12)c1ccc(CN2CCCC2)cc1.O=C(O)[C@H](O)[C@@H](O)C(=O)O	0
COc1ccc(NC(=O)c2ccc(-c3cc(-c4nnc(C)o4)ccc3C)cc2)cc1	0

## Task Query for PLK3: what %Inh does the record show for C[C@@H]1CCN(C(=O)CO)C[C@@H]1N(C)c1ncnc2[nH]ccc12 ?
## Result 12

## Task Form: Entry = C[C@H]1CC[C@@H](C(=O)Nc2ccccc2)CN1c1cc(-c2ccc3c(N)n[nH]c3c2)nc(N)n1 | System = PLK3 | %Inh = ____
## Result 0

## Task Test system PLK3; read-out %Inh; what value for FC(F)(F)c1ccc(-c2cc(-c3c[nH]nc3-c3ccccn3)ccn2)cc1 ?
## Result 0

###

Test system: INSRR
Run conditions: concentration: 1 μM, replicates: in singlicate; n = 1
The following compounds are listed with their measured %Inh values.
The reply should contain only the number, in %.

Solved entries:
Cc1cc(N2CCC(NS(=O)(=O)c3ccc(F)cc3)CC2)nc(Nc2cccc(C#N)c2)n1.O=C(O)C(F)(F)F [GSK1653537]	0
Fc1ccc(-c2ncn(CCCNCc3ccccc3)c2-c2ccncc2)cc1	5

Let us examine a further case.
## Task Which value of %Inh has been reported for COc1cc2c(Nc3cccc(NC(=O)c4ccccc4)c3)ncnc2cc1OCCCN1CCOCC1 [GSK223810] in the records?
## Result 7

###

Tested on: PAK4
Run conditions: concentration: 1 μM, replicates: in singlicate; n = 1
Quick reference: %Inh of the listed items.
Give the value in % but do not write % after it.

Below: 3 compounds and their reported %Inh.
O=c1cc(N2CCOCC2)nc2n(Cc3cccc(Cl)c3)ccn12 [GSK2296823]	0
O=C(Nc1ccccc1F)NC1CCN(c2ccnc(Nc3ccc(F)cc3)n2)C1 (centres unmarked) [GSK1379722]	0
Fc1ccc(Nc2nccc(-c3c(-c4ccc(Cl)cc4)nn4ncccc34)n2)cc1F [GW829058]	27

## Task Give its %Inh value. Item: COC(=O)c1cccc(NC(=O)NCCNc2ccnc(Nc3ccc(F)cc3)n2)c1 [GSK1379883]
## Result 0

## Task Value lookup for %Inh; key = N#Cc1ccc(Oc2ccc(Nc3ncnc4cc[nH]c34)cc2Cl)cc1
## Result 19

###

System: CDK4-cyclinD1
Run conditions: concentration: 1 μM, replicates: in singlicate; n = 1
Recorded endpoint: %Inh (%)
API: value field is a number in %; no unit string.

Solved cases (3 shown):
CC(C)(C)c1ccc(-n2cnc3c(N)ncnc32)cc1 [SKF-97263]	0
Fc1cccc(COc2ccc(Nc3ncnc4nn5ccccc5c34)cc2Cl)c1 [GW689066]	13
Cc1ccc(NC(=O)c2cccc(C#N)c2)cc1-c1ccc(C(=O)Nc2ccncc2)cc1 [GSK1398463]	0

## Task If you can, please state the reported %Inh value of Cl.Cn1ccc(-c2cccc(Nc3ccnc4cc(-c5nccs5)ccc34)c2)n1 [GW525701] .
## Result 47

## Task Endpoint output: %Inh of CCC(CC)(CC)n1cnc2c(N)ncnc21 [SKF-97620] . Value?
## Result 0

###

System: MARK1
Run conditions: concentration: 1 μM, replicates: in singlicate; n = 1
Recorded endpoint: %Inh
Answer by giving the amount and then stating its unit.

Guide cases for %Inh, answers given:
Cl.Fc1ccccc1COc1ccc(Nc2ncnc3ccc(-c4nnc(C(F)(F)F)o4)cc23)cc1Cl	0%
Cc1cc(N2CCC(NS(=O)(=O)c3ccc(F)cc3)CC2)nc(Nc2cccc(C#N)c2)n1.O=C(O)C(F)(F)F	0%
COC(=O)c1cccc(NC(=O)NCCNc2ccnc(Nc3ccc(F)cc3)n2)c1	0%

## Task Which %Inh value belongs to CS(=O)(=O)CCNCc1ccc(-c2ccc3ncnc(Nc4ccc(OCc5ccccc5)c(Cl)c4)c3c2)o1.Cl ?
## Result 0%

## Task Value lookup for %Inh; key = CCCc1ccc(S(=O)(=O)NC2CCN(c3ccnc(Nc4ccc(OC)cc4)n3)C2)cc1 (centres unmarked)
## Result 0%

## Task Requested read-out: %Inh. Entry: Fc1cccc(COc2ccc(Nc3ncnc4sc(-c5ccc[nH]5)cc34)cc2Cl)c1
## Result 12%

## Task Reported %Inh, molecule CSc1ccc(NC2=C(c3ccccc3Cl)C(=O)NC2=O)cc1 : ____
## Result 3%

## Task Which %Inh is listed for FC(F)(F)c1ccc(-c2cc(-c3c[nH]nc3-c3ccccn3)ccn2)cc1 ?
## Result 0%

## Task Recorded %Inh for Oc1ccc2ncnc(Nc3ccc(OCc4ccccc4)cc3)c2c1 , please?
## Result 0%

## Task Returns the measured %Inh for the input molecule. Input: COc1ccc(Nc2nccc(N3CCC(NC(=O)c4cccc(NC(C)=O)c4)C3)n2)cc1 (centres unmarked)
## Result 0%

## Task Param item = Fc1cccc(COc2ccc(Nc3ncnc4nn5ccccc5c34)cc2Cl)c1 ; retrieve measured %Inh.
## Result 0%

## Task GET /values?readout=%Inh&item= COc1ccc(NC(=O)Nc2ccc(C)c(-c3ccc(C(=O)Nc4ccncc4)cc3)c2)cc1
## Result 0%

## Task I'd like to know its %Inh. The molecule in question is COc1cc2c(Nc3cccc(NC(=O)c4ccccc4)c3)ncnc2cc1OCCCN1CCOCC1
## Result 11%

###

Tested on: CDK5
Run conditions: concentration: 1 μM, replicates: in singlicate; n = 1
Recorded endpoint: %Inh (%)
Express the result in % but write the number alone.

CS(=O)(=O)CCNCc1ccc(-c2ccc3ncnc(Nc4ccc(OCc5ccccc5)c(Cl)c4)c3c2)o1.Cl [GW574783]	0
CNc1nccc(-c2c(-c3ccc(F)cc3)ncn2CCCN2CCOCC2)n1 [SB-222516]	0
Cn1ccc2ncnc(Oc3ccc(NC(=O)Nc4cccnc4)c(Cl)c3)c21	4
Clc1cccc(-c2nc(Nc3ccncc3)c3ccccc3n2)c1 [GW873004]	0

## Task State the recorded %Inh for this entry: OCCOCCn1ccc2ncnc(Nc3ccc(Oc4cccc(Cl)c4)c(Cl)c3)c21
## Result 0
